Test system: NCI-H2228 alectinib-DTP
ASSAY_METHOD_TEXT: cell viability relative to vehicle (fraction of vehicle); higher = less growth inhibition
TEST_CONTEXT: 100 nM; treatment time 6 days
Over roughly 2,800 compounds, “cell viability relative to vehicle” has its median near 0.98; the lowest 2% begin near 0.45. This excerpt belongs to a sample that is enriched for the lowest values.
# cell viability values compiled below
Lab note: record just the number, no unit beside it.

INSERT INTO assay_data (molecule, readout_name, recorded_measurement) VALUES
  ('Cc1ccc(C(=O)Nc2ccc(CN3CCN(C)CC3)c(C(F)(F)F)c2)cc1C#Cc1cnc2cccnn12 [Ponatinib]', 'cell viability', 0.834),
  ('COC1=CC(=O)c2ccccc2C1=O [2-Methoxynaphthoquinone]', 'cell viability', 1.06),
  ('CCN1CCN(Cc2ccc(NC(=O)c3ccc(C)c(NC(=O)c4cncc(-c5cccs5)c4)c3)cc2C(F)(F)F)CC1', 'cell viability', 0.789),
  ('Cc1ccc(C(=O)Nc2ccc(CN3CCN(C)CC3)c(C(F)(F)F)c2)cc1C#Cc1cnc2[nH]ncc2c1', 'cell viability', 0.423);

Write down cell viability measured for item N#C/C(=C/c1ccc(O)c(O)c1)C(=O)N1CCc2ccccc21 [Tyrphostin AG 528]
1.03

Write down cell viability measured for item Cn1c(O)c(C2=c3ccccc3=NC2=O)c2ccccc21 [Methylisoindigotin]
0.85

Write down cell viability measured for item COc1cc2c3cc1Oc1c(OC)c(OC)cc4c1[C@@H](Cc1ccc(O)c(c1)Oc1ccc(cc1)C[C@@H]3N(C)CC2)N(C)CC4 [Berbamine]
1.09

Write down cell viability measured for item O=C(O)c1ccc2c(c1)C(=O)c1ccccc1C2=O
1.08

---

System: NCI-H2228 alectinib-DTP
ASSAY_METHOD_TEXT: cell viability relative to vehicle (fraction of vehicle); higher = less growth inhibition
TEST_CONTEXT: 100 nM; treatment time 6 days
Where a name gives a salt, the structure may show the parent alone. Over roughly 2,800 compounds, “cell viability relative to vehicle” has its median near 0.98; the lowest 2% begin near 0.45. This is one part of a sample in which the lowest values are shown more often than they occur.
# cell viability values compiled below

Recorded results for 2 molecules are shown here.
INSERT INTO measurements (molecule, readout_name, recorded_measurement) VALUES
  ('COc1c(O[C@@H]2O[C@H](CO)[C@@H](O)[C@H](O)[C@H]2O)cc2occ(-c3ccc(O)cc3)c(=O)c2c1O [Tectoridin]', 'cell viability', 1.03),
  ('CCn1c(=O)c(-c2cc[nH]n2)cc2c(C)nc(N)nc21 [Voxtalisib]', 'cell viability', 0.86);

Write down cell viability measured for item Cn1cc(C2=C(c3cccc(N)c3)C(=O)NC2=O)c2ccccc21
0.932

Write down cell viability measured for item CC(C)C[C@H](NC(=O)[C@@H](O)[C@H](N)Cc1ccccc1)C(=O)O [Bestatin hydrochloride]
1.12

Write down cell viability measured for item CC(=O)O[C@H](CC=C(C)C)C1=CC(=O)c2c(O)ccc(O)c2C1=O [Acetyl shikonin]
1.05

Write down cell viability measured for item COC1(c2sc3c(N4CCOCC4)nc(-c4cnc(N)nc4)nc3c2C)COC1
0.496

Write down cell viability measured for item O=C(Nc1ccc(CN2CCOCC2)cc1)c1ccc(-c2cccc(Cl)c2)o1
0.816

Write down cell viability measured for item CC(C)C[C@H](NC(=O)[C@H](CCc1ccccc1)NC(=O)CN1CCOCC1)C(=O)N[C@@H](Cc1ccccc1)C(=O)N[C@@H](CC(C)C)C(=O)[C@@]1(C)CO1 [Carfilzomib]
0.116

Write down cell viability measured for item CC(C)=CCc1cc2c(cc1O)O[C@H](c1ccc(O)cc1)CC2=O [Bavachin]
1.01

Write down cell viability measured for item O=C1c2c(O)ccc(O)c2C(=O)c2c(NCCNCCO)ccc(NCCNCCO)c21 [Mitoxantrone]
0.386

Write down cell viability measured for item Clc1ccc(NN=C(c2ccccc2)c2ccccn2)nc1
0.74

Write down cell viability measured for item Cc1[nH]c2ccccc2c1CCNCc1ccc(/C=C/C(=O)NO)cc1 [Panobinostat]
0.22

---

Test system: NCI-H2228 alectinib-DTP
ASSAY_METHOD_TEXT: cell viability relative to vehicle (fraction of vehicle); higher = less growth inhibition
TEST_CONTEXT: 100 nM; treatment time 6 days
Over roughly 2,800 compounds, “cell viability relative to vehicle” has its median near 0.98; the lowest 2% begin near 0.45. Shown is part of a subset that was picked to be rich in the lowest values.
Definition: the class of an entry is the range in b0 (below 0.6), b1 (0.6 to below 1), b2 (1 or more) that contains its cell viability.

Recorded results for 8 molecules are shown here.
INSERT INTO results (molecule, class) VALUES
  ('COc1ccc2c3n(c(=NC(=O)c4cccnc4)nc2c1OC)CCN3', 'b0'),
  ('Cc1cc(Nc2ncc3c(n2)N(C)C(=O)N(c2cc(NC(=O)c4cccc(C(F)(F)F)c4)ccc2C)C3)n(C)n1 [Pluripotin]', 'b0'),
  ('CC(C)n1nc(-c2ccc3oc(N)nc3c2)c2c(N)ncnc21', 'b0'),
  ('Cc1cc(C(=O)Nc2cccc(C(=O)Nc3cccc(C(F)(F)F)c3)c2)on1', 'b2'),
  ('CC(C)Oc1ccc(-c2nn([C@@H](C)c3oc4ccc(F)cc4c(=O)c3-c3cccc(F)c3)c3ncnc(N)c23)cc1F', 'b1'),
  ('CC(C)n1c(=O)n(C)c2cnc3cc(F)c(-c4ccc(OCCCN5CCCCC5)nc4)cc3c21', 'b1'),
  ('CC(C)n1nc(-c2cc3cc(O)ccc3[nH]2)c2c(N)ncnc21 [Torkinib]', 'b1'),
  ('COC(=O)c1c2c(c3ccccc3c1O)OC(C)(C)C=C2 [Mollugin]', 'b2');

Field: class (cell viability) — entry: COc1ccc(C=C(C#N)c2cccnc2)cc1OC
b1

Field: class (cell viability) — entry: C[C@@H]1CC[C@@]2(NC1)O[C@H]1C[C@H]3[C@@H]4CC=C5C[C@@H](O[C@@H]6O[C@H](CO)[C@@H](O[C@@H]7O[C@@H](C)[C@H](O)[C@@H](O)[C@H]7O)[C@H](O)[C@H]6O[C@@H]6O[C@@H](C)[C@H](O)[C@@H](O)[C@H]6O)CC[C@]5(C)[C@H]4CC[C@]3(C)[C@H]1[C@@H]2C [Solamargine]
b2

Field: class (cell viability) — entry: O=c1cc(-c2ccc(O[C@@H]3O[C@H](CO)[C@@H](O)[C@H](O)[C@H]3O)cc2)oc2cc(O)c([C@@H]3O[C@H](CO)[C@@H](O)[C@H](O)[C@H]3O[C@@H]3OC[C@H](O)[C@H](O)[C@H]3O)c(O)c12 [Vaccarin]
b1

Field: class (cell viability) — entry: Nc1ccc(-c2ccc3ncc4ccc(=O)n(-c5cccc(C(F)(F)F)c5)c4c3c2)cn1 [Torin 2]
b0

---

Test system: NCI-H2228 alectinib-DTP
ASSAY_METHOD_TEXT: cell viability relative to vehicle (fraction of vehicle); higher = less growth inhibition
TEST_CONTEXT: 100 nM; treatment time 6 days
Over roughly 2,800 compounds, “cell viability relative to vehicle” has its median near 0.98; the lowest 2% begin near 0.45. What follows is part of a selection rich in the lowest values, with near analogues and random picks from the rest.
# cell viability values compiled below

Recorded results for 5 molecules are shown here.
INSERT INTO results (compound_smiles, recorded_measurement) VALUES
  ('Cc1nn2c([nH]c(=O)c3cccnc32)c1C#N', 1.02),
  ('N#CN=C(NCCCCCCOc1ccc(Cl)cc1)Nc1ccncc1', 0.165),
  ('O=C(Nc1ccc2[nH]nc(-c3ccncc3)c2c1)[C@@H]1CCN(CC(=O)N2CCN(c3ccc(-c4ncccn4)cc3)CC2)C1', 0.831),
  ('C[C@H]1CNC(=O)c2cnn3ccc(nc23)N[C@H](C)c2cc(F)ccc2O1', 0.904),
  ('COc1ccc(/C(C#N)=C/c2ccc(N3CCC(O)CC3)s2)cc1OC', 0.953);

Write down cell viability measured for item CN(C)CCCOc1ccc(-c2ccc3ncc4c(c3c2)n(C2CCOCC2)c(=O)n4C)cn1
0.878

Write down cell viability measured for item C/C(=C1/C(=O)Nc2ccc(NC(N)=O)cc21)c1ccc[nH]1
1.02

Write down cell viability measured for item CCC(=O)N1CC[C@H](Nc2ncnc3c2CN(c2cnc(OC)c(C(F)(F)F)c2)CC3)C1
0.904

Write down cell viability measured for item CCCCCCCCCCCCCC(=S)NCCCC[C@H](NC(=O)OCc1ccccc1)C(=O)Nc1ccccc1
1.11

---

# cell viability values compiled below
Test system: NCI-H2228 alectinib-DTP
ASSAY_METHOD_TEXT: cell viability relative to vehicle (fraction of vehicle); NCI-H2228 is an ALK-positive lung cancer line and DTP means drug-tolerant persister; higher = less growth inhibition
TEST_CONTEXT: 100 nM; treatment time 6 days
The full ranking holds about 2,800 compounds; the median of “cell viability relative to vehicle” is about 0.98, and the lowest 2% start at about 0.45. Only a selection was taken, and the lowest values are over-represented in it overall.
Lab note: record just the number, no unit beside it.

INSERT INTO assay_data (compound, recorded_measurement) VALUES
  ('COCc1c(-c2ccc(NC(=O)Nc3cc(C(F)(F)F)ccc3F)c(F)c2)c2c(N)ncnn2c1CN1CCOCC1', 0.632),
  ('CCCCC/C=C\C/C=C\CCCCCCCC(=O)O', 0.87),
  ('O=C(NCc1ccc(S(=O)(=O)c2cc(F)cc(F)c2)cc1)c1ccc2nccn2c1', 0.34);

Write down cell viability measured for item CC(C)(C#N)c1ccc(N2C(=O)OCc3cnc4ccc(-c5cnc6ccccc6c5)cc4c32)cc1
0.925

Write down cell viability measured for item CC1(C)CC[C@]2(C(=O)O)CC[C@]3(C)C(=CC[C@@H]4[C@@]5(C)C[C@@H](O)[C@H](O)C(C)(C)[C@@H]5CC[C@]43C)[C@@H]2C1
0.962

Write down cell viability measured for item CO[C@@H](C)Cn1c(=O)n(C)c2cnc3ccc(-c4cncc(C(C)(C)O)c4)cc3c21
0.513

Write down cell viability measured for item Cc1ccc(S(=O)(=O)Cc2nc(-c3ccc(C(=O)NCc4cccnc4)cc3)oc2C)cc1
0.955

Write down cell viability measured for item CC(=O)OCC1=CO[C@@H](OC(=O)CC(C)C)[C@H]2C1=C[C@H](OC(=O)CC(C)(C)OC(C)=O)[C@]21CO1 [Acevaltrate]
1.13

Data credit: the supplement of paper PMC10600219
